test system: MCF-10a (normal breast cells)
propertyLabel: CC50 (µM)
// units = µM; emit number, no label

Assay MCF-10a (normal breast cells), sample C=C1CCC2C3(C)COC(c4cn(-c5ccccc5)nc4-c4ccc(F)cc4)OC3CCC2(C)C1CC=C1C(=O)OCC1O (stereo not shown) , CC50 read: 50

---

system: HCC-2998
propertyLabel: GI50 (nM)
// units = nM; emit number, no label

// field: GI50; key: C=C1CCC2C3(C)COC(c4cn(-c5ccccc5)nc4-c4ccc(Br)cc4)OC3CCC2(C)C1CC=C1C(=O)OCC1O (stereo not drawn) [1h] ; value = 1830

// field: GI50; key: C=C1CCC2C3(C)COC(c4cn(-c5ccccc5)nc4-c4ccc(Cl)cc4)OC3CCC2(C)C1CC=C1C(=O)OCC1O (stereo not drawn) [1g] ; value = 1880

// field: GI50; key: C=C1CCC2C3(C)COC(c4cn(-c5ccccc5)nc4-c4cccc([N+](=O)[O-])c4)OC3CCC2(C)C1CC=C1C(=O)OCC1O (stereo not drawn) [1b] ; value = 1920

---

test system: HCT-116; assay type: cell-based; conditions: HCT-116, Colon; read-out: 50% lethal concentration (LC50)
The entries below come with measured CC50 values attached.
// units = µM; emit number, no label

Field: example entries. Status: answers known.
{"molecule": "C=C1CCC2C3(C)COC(c4cn(-c5ccccc5)nc4-c4ccccc4)OC3CCC2(C)C1CC=C1C(=O)OCC1O (stereo not shown)", "CC50 / µM": 7.83}
{"molecule": "C=C1CCC2C3(C)COC(c4cn(-c5ccccc5)nc4-c4cccc(Cl)c4)OC3CCC2(C)C1CC=C1C(=O)OCC1O (stereo not shown)", "CC50 / µM": 45.2}
{"molecule": "C=C1CCC2C3(C)COC(c4cn(-c5ccccc5)nc4-c4ccc(Br)cc4)OC3CCC2(C)C1CC=C1C(=O)OCC1O (stereo not shown)", "CC50 / µM": 6.3}

// field: CC50; key: C=C1CCC2C3(C)COC(c4cn(-c5ccccc5)nc4-c4ccc(Cl)cc4)OC3CCC2(C)C1CC=C1C(=O)OCC1O (stereo not shown) ; value = 5.37

---

system: NCI-H23; settings: read-out: 50% lethal concentration (LC50); NCI-H23, Non-Small Cell Lung
The entries below come with measured CC50 values attached.
// units = µM; emit number, no label

{"molecule": "C=C1CCC2C3(C)COC(c4cn(-c5ccccc5)nc4-c4ccccc4)OC3CCC2(C)C1CC=C1C(=O)OCC1O (stereo not shown)", "CC50 (µM)": 5.64}
{"molecule": "C=C1CCC2C3(C)COC(c4cn(-c5ccccc5)nc4-c4ccc(C)cc4)OC3CCC2(C)C1CC=C1C(=O)OCC1O (stereo not shown)", "CC50 (µM)": 6.96}

// field: CC50; key: C=C1CCC2C3(C)COC(c4cn(-c5ccccc5)nc4-c4ccc(Cl)cc4)OC3CCC2(C)C1CC=C1C(=O)OCC1O (stereo not shown) ; value = 7.45

// field: CC50; key: C=C1CCC2C3(C)COC(c4cn(-c5ccccc5)nc4-c4cccc([N+](=O)[O-])c4)OC3CCC2(C)C1CC=C1C(=O)OCC1O (stereo not shown) ; value = 6.87

// field: CC50; key: C=C1CCC2C3(C)COC(c4cn(-c5ccccc5)nc4-c4cccc(Cl)c4)OC3CCC2(C)C1CC=C1C(=O)OCC1O (stereo not shown) ; value = 8.31

---

test system: A498; details: A498, Renal
Binary call on Total growth inhibition (TGI): 1.0 from 10 µM upward, 0.0 beneath that.

Prompt: Could you tell me if the measured Total growth inhibition (TGI) of C=C1CCC2C3(C)COC(c4cn(-c5ccccc5)nc4-c4cccc(Br)c4)OC3CCC2(C)C1CC=C1C(=O)OCC1O (stereo not drawn) [1e] reaches 10 µM or more?
Response: 0.0

---

test system: NCI-H460; conditions: read-out: 50% lethal concentration (LC50); NCI-H460, Non-Small Cell Lung
The entries below come with measured CC50 values attached.
// units = µM; emit number, no label

{"molecule": "C=C1CCC2C3(C)COC(c4cn(-c5ccccc5)nc4-c4ccc(OC)cc4)OC3CCC2(C)C1CC=C1C(=O)OCC1O (stereo not shown)", "targetSystem": "NCI-H460", "testValue": 7.01}

// field: CC50; key: C=C1CCC2C3(C)COC(c4cn(-c5ccccc5)nc4-c4cccc([N+](=O)[O-])c4)OC3CCC2(C)C1CC=C1C(=O)OCC1O (stereo not shown) ; value = 11.3

// field: CC50; key: C=C1CCC2C3(C)COC(c4cn(-c5ccccc5)nc4-c4ccc(C)cc4)OC3CCC2(C)C1CC=C1C(=O)OCC1O (stereo not shown) ; value = 6.91

// field: CC50; key: C=C1CCC2C3(C)COC(c4cn(-c5ccccc5)nc4-c4cccc(Br)c4)OC3CCC2(C)C1CC=C1C(=O)OCC1O (stereo not shown) ; value = 6.83

---

test system: SN12C; details: read-out: 50% lethal concentration (LC50), Renal
propertyLabel: CC50 (µM)
// units = µM; emit number, no label

Field: example entries. Status: answers known.
{"compound": "C=C1CCC2C3(C)COC(c4cn(-c5ccccc5)nc4-c4ccc(F)cc4)OC3CCC2(C)C1CC=C1C(=O)OCC1O (stereo not drawn)", "CC50 (µM)": 6.93}
{"compound": "C=C1CCC2C3(C)COC(c4cn(-c5ccccc5)nc4-c4cccc(F)c4)OC3CCC2(C)C1CC=C1C(=O)OCC1O (stereo not drawn)", "CC50 (µM)": 7.34}

Please examine the following record next.
// field: CC50; key: C=C1CCC2C3(C)COC(c4cn(-c5ccccc5)nc4-c4ccc(Cl)cc4)OC3CCC2(C)C1CC=C1C(=O)OCC1O (stereo not drawn) ; value = 7.61

---

system: UACC-62; conditions: UACC-62, Melanoma
propertyLabel: Total growth inhibition (TGI) (µM)
// units = µM; emit number, no label

Field: example entries. Status: answers known.
{"compound": "C=C1CCC2C3(C)COC(c4cn(-c5ccccc5)nc4-c4ccc(Br)cc4)OC3CCC2(C)C1CC=C1C(=O)OCC1O (stereo not shown)", "unitsText": "µM", "Total growth inhibition (TGI)": 3.13}
{"compound": "C=C1CCC2C3(C)COC(c4cn(-c5ccccc5)nc4-c4cccc(F)c4)OC3CCC2(C)C1CC=C1C(=O)OCC1O (stereo not shown)", "unitsText": "µM", "Total growth inhibition (TGI)": 3.21}
{"compound": "C=C1CCC2C3(C)COC(c4cn(-c5ccccc5)nc4-c4cccc([N+](=O)[O-])c4)OC3CCC2(C)C1CC=C1C(=O)OCC1O (stereo not shown)", "unitsText": "µM", "Total growth inhibition (TGI)": 3.46}
{"compound": "C=C1CCC2C3(C)COC(c4cn(-c5ccccc5)nc4-c4cccc(Cl)c4)OC3CCC2(C)C1CC=C1C(=O)OCC1O (stereo not shown)", "unitsText": "µM", "Total growth inhibition (TGI)": 3.42}

// field: Total growth inhibition (TGI); key: C=C1CCC2C3(C)COC(c4cn(-c5ccccc5)nc4-c4cccc(Br)c4)OC3CCC2(C)C1CC=C1C(=O)OCC1O (stereo not shown) ; value = 3.4

// field: Total growth inhibition (TGI); key: C=C1CCC2C3(C)COC(c4cn(-c5ccccc5)nc4-c4ccc(F)cc4)OC3CCC2(C)C1CC=C1C(=O)OCC1O (stereo not shown) ; value = 3.09

// field: Total growth inhibition (TGI); key: C=C1CCC2C3(C)COC(c4cn(-c5ccccc5)nc4-c4ccccc4)OC3CCC2(C)C1CC=C1C(=O)OCC1O (stereo not shown) ; value = 3.2

// field: Total growth inhibition (TGI); key: C=C1CCC2C3(C)COC(c4cn(-c5ccccc5)nc4-c4ccc(Cl)cc4)OC3CCC2(C)C1CC=C1C(=O)OCC1O (stereo not shown) ; value = 3.27

// field: Total growth inhibition (TGI); key: C=C1CCC2C3(C)COC(c4cn(-c5ccccc5)nc4-c4ccc(OC)cc4)OC3CCC2(C)C1CC=C1C(=O)OCC1O (stereo not shown) ; value = 4.26

// field: Total growth inhibition (TGI); key: C=C1CCC2C3(C)COC(c4cn(-c5ccccc5)nc4-c4ccc(C)cc4)OC3CCC2(C)C1CC=C1C(=O)OCC1O (stereo not shown) ; value = 3.15

---

tested on: MALME-3M; details: read-out: 50% lethal concentration (LC50), Melanoma
propertyLabel: CC50 (µM)
// units = µM; emit number, no label

{"compound": "C=C1CCC2C3(C)COC(c4cn(-c5ccccc5)nc4-c4cccc([N+](=O)[O-])c4)OC3CCC2(C)C1CC=C1C(=O)OCC1O (centres unmarked)", "CC50 (µM)": 7.05}

Please examine the following record next.
// field: CC50; key: C=C1CCC2C3(C)COC(c4cn(-c5ccccc5)nc4-c4ccccc4)OC3CCC2(C)C1CC=C1C(=O)OCC1O (centres unmarked) ; value = 5.88
